Property: IC50; scope: individual molecules
Test system: IL-8
Test: Glucocorticoid transrepression assay, IL-8 inhibition (TR)
Assay type: cell-based
Settings: Homo sapiens; Table 7; NCl-H292 cells, TNFα 10 ng/ml

# input Give recorded IC50 with IL-8 for the following molecule: CCOC(=O)c1cnn(CC(=O)[C@@]2(O)CCC3C4CCC5=Cc6c(cnn6-c6ccc(F)cc6)CC5(C)C4[C@@H](O)CC32C)c1 (some centres unmarked)
# output 0.06 to 20 nM

***
# input Look up IC50 with IL-8 for this molecule: Cc1cnn(CC(=O)[C@@]2(O)CCC3C4CCC5=Cc6c(cnn6-c6ccc(F)cc6)CC5(C)C4[C@@H](O)CC32C)c1 (some centres unmarked)
# output 0.06 to 20 nM
